# MEASUREMENT TARGET: HLA-A*26:01
# PROTOCOL: IEDB peptide-MHC binding, purified MHC/direct/fluorescence; filed as Kd, often an IC50 or EC50 that approximates it; bounds were set here for any values at or beyond the usual limits of such assays
# EXPERIMENTAL PARAMETERS: source organism: Vibrio parahaemolyticus
pKd: −log10 of the molar value.
MEASUREMENT KIND: pKd

Recorded pKd (sequence YREAGIPVL ): ≤ 4.70

====

Reported pKd values for the following sequences.
# MEASUREMENT TARGET: HLA-A*33:01
# PROTOCOL: IEDB peptide-MHC binding, purified MHC/competitive/radioactivity; filed as Kd, often an IC50 or EC50 that approximates it; bounds were set here for any values at or beyond the usual limits of such assays
# EXPERIMENTAL PARAMETERS: source organism: Dengue virus 1 Brazil/97-11/1997
// returns pKd (minus log10 of molar concentration), number only

* LVMAFIAFLR | 6.97
* EFKEFAAGRR | 7.42

Now for another entry.
Recorded pKd (sequence TYLALMATFK ): 7.96

====

# MEASUREMENT TARGET: HLA-A*01:01
# PROTOCOL: IEDB peptide-MHC binding, purified MHC/competitive/fluorescence; filed as Kd, often an IC50 or EC50 that approximates it; bounds were set here for any values at or beyond the usual limits of such assays
# EXPERIMENTAL PARAMETERS: source organism: Vaccinia virus WR
MEASUREMENT KIND: pKd
// returns pKd (minus log10 of molar concentration), number only

Entry KVFDKSLLY under HLA-A*01:01 had pKd of 5.61

====

# MEASUREMENT TARGET: HLA-B*44:02
# PROTOCOL: IEDB peptide-MHC binding, purified MHC/direct/fluorescence; filed as Kd, often an IC50 or EC50 that approximates it; bounds were set here for any values at or beyond the usual limits of such assays
# EXPERIMENTAL PARAMETERS: source organism: Orthohantavirus hantanense
MEASUREMENT KIND: Kd (µM)
Use µM as the unit, but write only the number.

Recorded Kd (sequence IEADIEHFL ): 7.67

====

# MEASUREMENT TARGET: HLA-A*69:01
# PROTOCOL: IEDB peptide-MHC binding, purified MHC/direct/fluorescence; filed as Kd, often an IC50 or EC50 that approximates it; bounds were set here for any values at or beyond the usual limits of such assays
# EXPERIMENTAL PARAMETERS: source organism: Salmonella enterica
pKd: −log10 of the molar value.
MEASUREMENT KIND: pKd

Entry EHFYWGSVF under HLA-A*69:01 had pKd of ≤ 4.70

====

# MEASUREMENT TARGET: HLA-A*02:06
# PROTOCOL: IEDB peptide-MHC binding, purified MHC/direct/fluorescence; filed as Kd, often an IC50 or EC50 that approximates it; bounds were set here for any values at or beyond the usual limits of such assays
# EXPERIMENTAL PARAMETERS: source organism: Influenza A virus H3N2
MEASUREMENT KIND: Kd

Recorded Kd (sequence VTTEVAFGL ): ≤ 1 nM

====

# MEASUREMENT TARGET: HLA-B*46:01
# PROTOCOL: IEDB peptide-MHC binding, purified MHC/direct/fluorescence; filed as Kd, often an IC50 or EC50 that approximates it; bounds were set here for any values at or beyond the usual limits of such assays
# EXPERIMENTAL PARAMETERS: source organism: Yersinia pestis CA88-4125
MEASUREMENT KIND: Kd

Recorded Kd (sequence QQRPDLILV ): ≥ 20 µM
